Reported TGI values follow for various molecules
# System: T-47D breast
# protocol text: NCI tumour cell line growth inhibition, 48 h

>  <molecule>
O=C1c2ccc3cc(CCl)cc(O)c3c2C(=O)c2cccc(O)c21

>  <TGI>
> 10 µM

$$$$
>  <molecule>
O=c1oc2ccc(Cl)cc2cc1C1=CSC2=NCCN12

>  <TGI>
79.7 µM

$$$$
>  <molecule>
CN(C)CCNC(=O)c1cc([N+](=O)[O-])cn1C

>  <TGI>
> 100 µM

$$$$
>  <molecule>
O=c1n(-c2ccccc2)c(=O)n2n1C1C=CC2CCCCCC1

>  <TGI>
> 100 µM

$$$$
>  <molecule>
CC1(C)CC(=O)c2c(nc3c(ccc4ccccc43)c2-c2ccc(NC(=O)CCCC(=O)Nc3ccc(-c4c5c(nc6c4ccc4ccccc46)CC(C)(C)CC5=O)cc3)cc2)C1

>  <TGI>
> 100 µM

$$$$
>  <molecule>
COc1cc(OC)cc(C2C(C#N)=C(N)Oc3c2ccc2ccc(O)cc32)c1 (stereo not given)

>  <TGI>
22.8 µM

$$$$
>  <molecule>
COc1cc2c(cc1OCCCNC(=O)/C=C1/C[C@H]3C=Nc4cc(OCc5ccccc5)c(OC)cc4C(=O)N3C1)NC(=O)[C@@H]1CCCN1C2=O

>  <TGI>
> 100 µM

$$$$
>  <molecule>
O=C(O)c1sccc1O

>  <TGI>
> 100 µM

$$$$
>  <molecule>
COC(=O)CSC1CC(=O)c2c(Cl)sc(Cl)c21 (stereo not given)

>  <TGI>
> 100 µM

$$$$
>  <molecule>
Clc1ccc(CSC2=NCCN2)cc1Cl

>  <TGI>
27 µM

$$$$
>  <molecule>
O=C(O)CC1OCC=C2C[N+]3([O-])CCC45c6ccccc6NC4C1C2CC53 (stereo not given)

>  <TGI>
> 100 µM

$$$$
>  <molecule>
Nc1ncnc2nc(N3CCN(CCO)CC3)[nH]c12

>  <TGI>
> 100 µM

$$$$
>  <molecule>
COc1ccc2c(c1OC)CO[C@@H]2[C@H]1c2c(c(Br)c3c(c2OC)OCO3)CCN1C

>  <TGI>
> 100 µM

$$$$
>  <molecule>
COc1ccc(F)cc1/C=C/C(=O)/C=C(/C=C/c1cc(F)ccc1OC)OB(F)F

>  <TGI>
96.6 µM

$$$$
>  <molecule>
Oc1ccc(CCl)c2cccnc12

>  <TGI>
> 100 µM

$$$$
>  <molecule>
COc1cnc2c(c1)C(=O)c1c-2n(CCCBr)c(=O)c2cc([N+](=O)[O-])ccc12

>  <TGI>
3.19 µM

$$$$
>  <molecule>
COC(=O)c1c2c(c3[nH]c4ccccc4c3c1C(=O)OC)C(=O)C1=C(C2=O)C2(Cl)C(Cl)C(Cl)C1(Cl)C2(Cl)Cl (stereo not given)

>  <TGI>
16.3 µM

$$$$
>  <molecule>
COc1ccc2c3c1O[C@H]1C(=O)C=CC4(n5[nH]c(=O)n(-c6ccccc6)c5=O)C(C2)N(C)CCC314 (stereo not given in full)

>  <TGI>
> 100 µM

$$$$
>  <molecule>
Cn1c(-c2c(N)n(Cc3ccc(C(F)(F)F)cc3)c3nc(C#N)c(C#N)nc23)nc2ccccc21

>  <TGI>
74.7 µM

$$$$
>  <molecule>
O=[N+]([O-])c1cccc(-c2ncnc(-c3cccc([N+](=O)[O-])c3)n2)c1

>  <TGI>
> 100 µM

$$$$
